# Condition Summary: buffer; pH 7.4; 200.0 µM
Value Kind: solubility kinetic (µg/mL)
Reply numerically in µg/mL, unit not repeated.

Known solubility kinetic results, listed for orientation:
CNc1nc(N)c([N+](=O)[O-])c(Nc2cccc(Cl)c2)n1 : 0.4
CCOc1cnc(-c2c(-c3c(F)cccc3Cl)noc2C)o1 : 9.1
CC(=O)Nc1ccc(NC(=O)Nc2cccc(Cl)c2)cc1 : 1.4
COc1ccc(CCC(C)N(C)Cc2ccccc2)cc1 (stereo not drawn) : 34.9
CC1=C(C(=O)OC(C)C)C(c2ccc3c(c2)OCO3)NC(=O)N1 (stereo not drawn) : 47.3

// query Which solubility kinetic value is on record for COc1ccc(S(=O)(=O)NCc2ccccn2)cc1OC ?
// result 43

// query Lookup COc1ccc(CC(=O)Nc2cc(S(=O)(=O)Nc3ccc(OC)cc3)ccc2OC)cc1
// result 14.6

// query Now the same for COC(=O)c1ccc(COC(=O)c2cccnc2Cl)cc1
// result 37.8

* * *

# Condition Summary: buffer; pH 7.4; 200.0 µM
Value Kind: solubility kinetic

Solved cases (3 shown):
O=C(CS(=O)(=O)c1ccc(F)cc1)NCc1ccccc1 : 16.2 µg/mL
Cc1ccccc1CC(=O)NCCN1CCCCC1 : > 39.1 µg/mL
COCCNS(=O)(=O)c1cc(OC)ccc1OC : > 41.3 µg/mL

// query Fill in: solubility kinetic of O=[N+]([O-])c1ccccc1O[C@@H]1O[C@H](CO)[C@H](O)[C@H](O)[C@H]1O is ___
// result > 45.2 µg/mL

// query Then what about the compound CC(C)(C)C(=O)Nc1nc2cc3c(cc2s1)OCO3 ?
// result 0.6 µg/mL

// query Okay, and COc1cc(OC)c(NC(=O)C2CCCO2)cc1Cl (stereo unspecified) ?
// result > 42.9 µg/mL

* * *

# Condition Summary: buffer; pH 7.4; 200.0 µM
Binary call on solubility kinetic: Satisfied from 8 µg/mL upward, Not satisfied beneath that.

// query API: above_or_equal(metric=solubility kinetic, cutoff=8 µg/mL) for item Cn1cc(C(=O)OCC(=O)NC2(C#N)CCCC2)c2ccccc21
// result Satisfied

* * *

# Condition Summary: buffer; pH 7.4; 200.0 µM
# solubility kinetic values compiled below
// note: answer is a bare numeric in µg/mL

N#C/C(=C\c1ccc(Cl)c([N+](=O)[O-])c1)c1ccccn1 : 2.5
O=C(CCCc1ccccc1)Nc1ccccc1[N+](=O)[O-] : 15.2
COc1ccc(CNC(=O)Nc2ccccc2)cc1 : 13.5
COc1ccc2[nH]c3c(=O)n(CCc4ccccc4)cnc3c2c1 : 0.6
CCn1cnc2cc(NCc3ccc(Cl)cc3)ccc21 : 34

// query Value lookup for solubility kinetic; key = CCCCC1C2C(=O)N(c3ccccc3)C(=O)C2ON1c1ccccc1 (configuration not stated)
// result 49.1

// query What do we get for Cc1cc(N2CCN(C)CC2)nc2ccccc12 ?
// result 32.9

* * *

# Condition Summary: buffer; pH 7.4; 200.0 µM
Each record here notes measured solubility kinetic.
# number only, unit µg/mL dropped from output

COc1ccccc1NS(=O)(=O)c1ccc2c(c1)OCCO2 : 48
COc1ccccc1CCC(=O)Oc1ccccc1C#N : 16.6
Cn1ccnc1C1CCCCN1Cc1nc(Cc2ccccc2F)no1 (centres undefined) : 49.9
Cc1ccc(C(=O)NC2CCN(C(=O)Nc3ccc(F)cc3)CC2)cc1 : 0.6
[Br-].c1ccc(C[n+]2ccc3ccccc3c2)cc1 : 43.9

// query Look up solubility kinetic for this molecule: Cc1nc(NC(=O)CN2CC(C)OC(C)C2)sc1C(=O)N(C)C (centres undefined)
// result 44.2

// query Try O=C(Nc1ccc(F)cc1)C1COc2ccccc2O1 (centres undefined) next.
// result 39.8

// query And the next one, COc1ccc(S(=O)(=O)N2CCOCC2)cc1NC(=O)CCCOc1ccccc1 ?
// result 40.9

// query Next: Cc1cc(Cl)ccc1OCC(=O)Nc1ccc(CN2CCOCC2)cc1
// result 41.3

// query Could you do the same for COc1ccc(S(=O)(=O)n2c(C)nc3ccccc32)cc1C , please?
// result 36.2

// query Now try CCOc1ccccc1Nc1ccc(C(=O)O)cc1N .
// result 37.6

// query Another molecule to check: Cc1cccc(NC(=O)CSc2cccc3cccnc23)c1
// result 21.3

// query Item: COc1ccc(S(=O)(=O)NC2CC2)cc1Cl
// result 35.3

// query CC1CCCC(NC(=O)COC(=O)c2cc3ccccc3oc2=O)C1C (centres undefined) , same question.
// result 33.3

// query Thanks! And COc1ccc(N(C)S(=O)(=O)c2cccc(C(=O)OCC(=O)c3c(N)n(C)c(=O)n(C)c3=O)c2)cc1 ?
// result 3.2

// query What do you have for CCCSc1ccc2nc(NC(=O)OC)[nH]c2c1 ?
// result 1.4

// query Try the molecule COc1ccccc1CC(=O)NC(=O)c1ccccc1O
// result 41.5

// query Now the same for NC(=O)CC(CC(=O)OCc1ccccc1)c1ccccc1 (centres undefined)
// result 38

Ref: PubChem BioAssay AID1996
